Target: T1, human glucagon receptor (human, UniProt P47871 26-477)
T1 construct: whole, on cells; also called hGCGR; hGcgR
T1 sequence (P47871 26-477): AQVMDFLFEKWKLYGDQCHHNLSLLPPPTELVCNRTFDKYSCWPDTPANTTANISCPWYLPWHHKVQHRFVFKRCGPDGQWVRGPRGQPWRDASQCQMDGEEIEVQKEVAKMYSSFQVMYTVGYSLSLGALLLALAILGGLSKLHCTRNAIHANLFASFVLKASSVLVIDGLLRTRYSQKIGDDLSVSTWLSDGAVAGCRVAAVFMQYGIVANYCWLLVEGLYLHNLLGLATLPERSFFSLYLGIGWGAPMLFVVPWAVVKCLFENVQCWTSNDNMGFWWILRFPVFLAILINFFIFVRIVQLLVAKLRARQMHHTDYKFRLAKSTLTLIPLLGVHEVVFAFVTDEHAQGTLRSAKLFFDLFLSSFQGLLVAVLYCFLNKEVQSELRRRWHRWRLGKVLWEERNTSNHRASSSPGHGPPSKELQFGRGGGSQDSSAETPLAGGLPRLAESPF
Assay: SPA competition vs [125I]-Gcg, hGcgR membranes
// map Ki onto a label; ranges band A = under 80 nM, band B = from 80 nM up to 200 nM, band C = 200 nM and over

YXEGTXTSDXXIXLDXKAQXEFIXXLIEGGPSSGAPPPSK (Aib2, αMeF(2F)6, 4Pal10, Aib11, αMeL13, Orn16, K17(Z1), Aib20, D-Glu24, αMeY25, K40(Z1), C-term NH2; Z1=AEEA3-(γ-Glu)-CO-(CH2)10-CH3); band A
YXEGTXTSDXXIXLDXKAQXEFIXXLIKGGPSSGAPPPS (Aib2, αMeF(2F)6, 4Pal10, Aib11, αMeL13, Orn16, K17(Z1), Aib20, D-Glu24, αMeY25, K28(Z1), C-term NH2; Z1=AEEA2-(γ-Glu)-CO-(CH2)10-CH3); band A
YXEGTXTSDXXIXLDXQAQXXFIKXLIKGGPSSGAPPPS (Aib2, αMeF(2F)6, 4Pal10, Aib11, αMeL13, Orn16, Aib20, Orn21, K24(Z1), αMeY25, K28(Z1), C-term NH2; Z1=PEG6-(γ-Glu)-(10-(4-carboxyphenoxy)decanoyl)); band C
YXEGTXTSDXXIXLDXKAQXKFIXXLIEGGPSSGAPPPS (Aib2, αMeF(2F)6, 4Pal10, Aib11, αMeL13, Orn16, K17(Z1), Aib20, K21(Z1), D-Glu24, αMeY25, C-term NH2; Z1=AEEA-(γ-Glu)-(10-(4-carboxyphenoxy)decanoyl)); band B
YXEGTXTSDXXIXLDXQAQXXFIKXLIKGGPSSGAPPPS (Aib2, αMeF(2F)6, 4Pal10, Aib11, αMeL13, Orn16, Aib20, Orn21, K24(Z1), αMeY25, K28(Z1), C-term NH2; Z1=AEEA3-(γ-Glu)-CO-(CH2)12-CO2H); band C
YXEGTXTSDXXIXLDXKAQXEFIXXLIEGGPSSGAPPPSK (Aib2, αMeF(2F)6, 4Pal10, Aib11, αMeL13, Orn16, K17(Z1), Aib20, D-Glu24, αMeY25, K40(Z1), C-term NH2; Z1=AEEA-(γ-Glu)-(10-(4-carboxyphenoxy)decanoyl)); band C
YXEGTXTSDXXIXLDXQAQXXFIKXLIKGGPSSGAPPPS (Aib2, αMeF(2F)6, 4Pal10, Aib11, αMeL13, Orn16, Aib20, Orn21, K24(Z1), αMeY25, K28(Z1), C-term NH2; Z1=AEEA-(γ-Glu)-AEEA-(γ-Glu)-CO-(CH2)12-CO2H); band C
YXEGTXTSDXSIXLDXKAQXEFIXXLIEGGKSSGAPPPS (Aib2, αMeF(2F)6, αMeL10, αMeL13, Orn16, K17(Z1), Aib20, D-Glu24, αMeY25, K31(Z1), C-term NH2; Z1=AEEA2-(γ-Glu)-CO-(CH2)12-CO2H); band A
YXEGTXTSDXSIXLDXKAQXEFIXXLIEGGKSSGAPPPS (Aib2, αMeF(2F)6, 4Pal10, αMeL13, Orn16, K17(Z1), Aib20, D-Glu24, αMeY25, K31(Z1), C-term NH2; Z1=(εK)-AEEA-(γ-Glu)-CO-(CH2)12-CO2H); band C
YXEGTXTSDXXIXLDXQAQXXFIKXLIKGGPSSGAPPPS (Aib2, αMeF(2F)6, 4Pal10, Aib11, αMeL13, Orn16, Aib20, Orn21, K24(Z1), αMeY25, K28(Z1), C-term NH2; Z1=AEEA2-Trx-(γ-Glu)-(10-(4-carboxyphenoxy)decanoyl)); band C

Bin this entry: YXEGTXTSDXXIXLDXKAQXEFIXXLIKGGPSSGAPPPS (Aib2, αMeF(2F)6, 4Pal10, Aib11, αMeL13, Orn16, K17(Z1), Aib20, D-Glu24, αMeY25, K28(Z1), C-term NH2; Z1=AEEA3-(γ-Glu)-CO-(CH2)10-CH3)
band B

Bin this entry: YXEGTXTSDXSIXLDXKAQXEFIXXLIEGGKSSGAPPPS (Aib2, αMeF(2F)6, 2Nal10, αMeL13, Orn16, K17(Z1), Aib20, D-Glu24, αMeY25, K31(Z1), C-term NH2; Z1=AEEA2-(γ-Glu)-CO-(CH2)12-CO2H)
band B

Bin this entry: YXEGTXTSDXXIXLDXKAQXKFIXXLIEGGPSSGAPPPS (Aib2, αMeF(2F)6, 4Pal10, Aib11, αMeL13, Orn16, K17(Z1), Aib20, K21(Z1), D-Glu24, αMeY25, C-term NH2; Z1=AEEA-(γ-Glu)-CO-(CH2)12-CO2H)
band C

Bin this entry: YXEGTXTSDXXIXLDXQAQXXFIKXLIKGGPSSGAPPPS (Aib2, αMeF(2F)6, 4Pal10, Aib11, αMeL13, Orn16, Aib20, Orn21, K24(Z1), αMeY25, K28(Z1), C-term NH2; Z1=PEG4-(γ-Glu)-(10-(4-carboxyphenoxy)decanoyl))
band B

Bin this entry: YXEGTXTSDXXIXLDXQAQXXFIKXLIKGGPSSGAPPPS (Aib2, αMeF(2F)6, 4Pal10, Aib11, αMeL13, Orn16, Aib20, Orn21, K24(Z1), αMeY25, K28(Z1), C-term NH2; Z1=AEEA2-(γ-Glu)2-(10-(4-carboxyphenoxy)decanoyl))
band B

Bin this entry: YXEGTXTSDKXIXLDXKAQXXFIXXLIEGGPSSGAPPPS (Aib2, αMeF(2F)6, K10(Z1), Aib11, αMeL13, Orn16, K17(Z1), Aib20, Orn21, D-Glu24, αMeY25, C-term NH2; Z1=AEEA2-(γ-Glu)-CO-(CH2)10-CH3)
band A
